Provenance of the data: ChEMBL document CHEMBL1201862

systemName: Alkaline phosphatase, tissue-nonspecific isozyme (Homo sapiens, UniProt P05186)
Sequence (P05186 whole entry): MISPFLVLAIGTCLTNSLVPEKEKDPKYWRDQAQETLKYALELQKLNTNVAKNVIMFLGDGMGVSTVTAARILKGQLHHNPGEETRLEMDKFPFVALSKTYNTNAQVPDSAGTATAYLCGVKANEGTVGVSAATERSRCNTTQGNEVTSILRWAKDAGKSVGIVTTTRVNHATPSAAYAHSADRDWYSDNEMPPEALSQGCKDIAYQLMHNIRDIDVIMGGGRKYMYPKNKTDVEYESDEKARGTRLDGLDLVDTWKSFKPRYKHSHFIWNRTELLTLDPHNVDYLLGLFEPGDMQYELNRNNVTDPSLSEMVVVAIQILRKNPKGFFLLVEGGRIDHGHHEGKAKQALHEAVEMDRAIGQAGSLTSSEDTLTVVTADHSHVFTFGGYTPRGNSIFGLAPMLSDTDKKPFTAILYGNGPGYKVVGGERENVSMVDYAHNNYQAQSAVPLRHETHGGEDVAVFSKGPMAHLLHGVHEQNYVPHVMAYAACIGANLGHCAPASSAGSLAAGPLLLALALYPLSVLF
test: TNAP enzyme inhibition by screening hits, dose response, selectivity assay for mouse IAP inhibitor project, biochemical, human TNAP, uHTS hits (AID 488906)
Type: functional
The source made the active and inactive calls.
endpoint: IC50

The cases that follow already have their IC50 on record.
Oc1cc(O)c2c(c1)O[C@H](c1ccc(O)c(O)c1)[C@H](O)C2 [(-)-EPICATECHIN] :: 0.407 µM (active)
O=c1c(O)c(-c2cc(O)c(O)c(O)c2)oc2cc(O)cc(O)c12 :: 33.2 µM (active)
Cc1cc(Cl)ccc1NC(=S)NCCC(c1ccccc1)c1ccccc1 :: 80.1 µM (active)

Next, consider the following molecule.
Record "O=C(COc1ccccc1C(=O)N/N=C\c1ccc(O)c(O)c1)N/N=C/c1ccc(O)c(O)c1" : what is its IC50 with Alkaline phosphatase, tissue-nonspecific isozyme (Homo sapiens, UniProt P05186)?
> 100 µM (inactive)

====

test: blockers of CRF-binding protein–CRF-R2 complex – cell-based, uHTS hits, 384-well, dose response (AID 651639)
Assay type: functional, Homo sapiens
testContext: read-out: IC50_Mean
Calls of active or inactive are those of the source.
Give one outcome, nothing more. List: active, inactive

These solved cases illustrate the format of a correct answer.
Clc1cnc(Oc2ccc(Oc3ncc(Cl)cc3Cl)cc2)c(Cl)c1 :: active
CC(CCc1ccco1)NC(=O)c1cccc2c1C(=O)N(C1CCCCC1)C2 (stereo not given) :: inactive
Cc1nc2ccccc2n1CC(O)COC1CCCCC1 (stereo not given) :: active
O=[N+]([O-])c1ccc2nc(S)sc2c1 :: inactive

I'd appreciate the recorded outcome for "COC(=O)c1cc(OC)c(OC)cc1NC(=O)c1c(-c2ccccc2Cl)noc1C" from this test.
inactive

====

# AC50 annotations
systemName: Dual specificity tyrosine-phosphorylation-regulated kinase 1A (Rattus norvegicus, UniProt Q63470)
Assay type: biochemical, Homo sapiens
The source made the active and inactive calls.

Previously resolved entries follow.
CC(=O)NC12CC3CC(C1)CC(C(=O)Nc1nc4ccc(F)cc4s1)(C3)C2 :: 2640 nM (active)
CCOC(=O)CSC1=NC(=O)/C(=C/c2ccc(OC)cc2)S1 :: 395 nM (active)
CCCc1nc2c(=O)n(C)c(=O)nc-2n(C)n1 :: 249 nM (active)

Sample "C[C@@H]1O[C@@H](OC[C@@H]2O[C@H](Oc3c(-c4ccc(O)cc4)oc4cc(O)cc(O)c4c3=O)[C@@H](O)[C@H](O)[C@H]2O)[C@H](O)[C@H](O)[C@H]1O" — what was its AC50?
6660 nM (active)
